tested on: wild oats; assay: Postemergent control of plant species; format: in vivo, Avena fatua; settings: Avena fatua, post-emergence, 336 h, read-out: percent postemergent control
ENDPOINT: pest or weed control at 500 ppm (%)
The response must be a number in % with no trailing unit.

Example compounds with recorded pest or weed control at 500 ppm:
Cc1nc2nc(S(=O)(=O)Nc3ccccc3C(F)(F)F)nn2c2c1CCC2 | 30
Cc1ccn2nc(S(=O)(=O)Nc3c(C)nn(C)c3C(F)(F)F)nc2n1 | 0
O=S(=O)(Nc1ccccc1C(F)(F)F)c1nc2ncccn2n1 | 0
C=CCN(c1c(Cl)cccc1Cl)S(=O)(=O)c1nc2nc(C)cc(C)n2n1 | 0

In the following, a different compound is considered.
**Q:** // fetch wild oats pest or weed control at 500 ppm for Cc1cc(C)n2nc(S(=O)(=O)Nc3c(C)ccc(Cl)c3Cl)nc2n1
**A:** 0

====

test system: nitrification of ammonium nitrogen; test: Suppression of nitrification of ammonium nitrogen in soil; conditions: 10 ppm, 27° C.
Consider the following partition of reported % NH4-N Remaining After 2 Weeks Incubation into named classes: lo: < 70%; mid: ≥ 70% and < 90%; hi: ≥ 90%

Cc1cc(C)n2nc(S(=O)(=O)Nc3ccccc3C(=O)O)nc2n1 | lo

**Q:** Given Cc1cc(C)n2nc(S(=O)(=O)Nc3ccc(F)cc3Cl)nc2n1 , name the class its % NH4-N Remaining After 2 Weeks Incubation places it in.
**A:** mid

**Q:** Given Cc1cc(C)n2nc(S(=O)(=O)Nc3cc(Cl)ccc3Cl)nc2n1 , name the class its % NH4-N Remaining After 2 Weeks Incubation places it in.
**A:** mid

**Q:** Given Cc1cc(C)n2nc(S(=O)(=O)Nc3c(Br)cccc3Br)nc2n1 , name the class its % NH4-N Remaining After 2 Weeks Incubation places it in.
**A:** hi

**Q:** Given Cc1cc(C)n2nc(S(=O)(=O)Nc3c(Cl)cccc3I)nc2n1 , name the class its % NH4-N Remaining After 2 Weeks Incubation places it in.
**A:** hi

**Q:** Given CCN(C)S(=O)(=O)c1ccccc1NS(=O)(=O)c1nc2nc(C)cc(C)n2n1 , name the class its % NH4-N Remaining After 2 Weeks Incubation places it in.
**A:** lo

**Q:** Given Cc1nc2nc(S(=O)(=O)Nc3ccccc3C(=O)OC(C)C)nn2c2c1CCC2 , name the class its % NH4-N Remaining After 2 Weeks Incubation places it in.
**A:** lo

====

tested on: yellow nutsedge; assay: Preemergent control of plant species; type: in vivo, Cyperus esculentus; settings: Cyperus, pre-emergence, 336 h; 0.25 lb/acre; read-out: percent preemergent control
Measured pest or weed control at 280.212 g/ha values are reported for all entries that follow.
The response must be a number in % with no trailing unit.

Example compounds with recorded pest or weed control at 280.212 g/ha:
Cc1ccn2nc(S(=O)(=O)N(c3c(F)cccc3F)S(=O)(=O)c3ccccc3)nc2n1 | 100
Cc1cc(C(F)(F)F)n2nc(S(=O)(=O)Nc3c(F)ccc(C)c3F)nc2n1 | 100
COc1cccc(C(F)(F)F)c1NS(=O)(=O)c1nc2ncccn2n1 | 75
C=C(C)C(=O)N(c1c(F)cccc1F)S(=O)(=O)c1nc2nc(C)ccn2n1 | 100
Cc1ccnc2nc(S(=O)(=O)Nc3c(F)cccc3F)nn12 | 0
Cc1ccc(Cl)c(NS(=O)(=O)c2nc3ncccn3n2)c1Cl | 100
COC(=O)c1ccc(C)c(NS(=O)(=O)c2nc3nc(C)cc(C)n3n2)c1Br | 0
CCOC(=O)N(c1c(Cl)cccc1Cl)S(=O)(=O)c1nc2nc(C)ccn2n1 | 100

**Q:** Value lookup for pest or weed control at 280.212 g/ha; key = O=S(=O)(Nc1c(F)cccc1F)c1nc2ncccn2n1
**A:** 80

====

test system: wild oats; experiment: Postemergent control of plant species; type: in vivo, Avena fatua; settings: Avena fatua, post-emergence, 336 h, read-out: percent postemergent control
ENDPOINT: pest or weed control at 500 ppm (%)
The response must be a number in % with no trailing unit.

Example compounds with recorded pest or weed control at 500 ppm:
CC(=O)N(c1c(Cl)cccc1Cl)S(=O)(=O)c1nc2nc(C)cc(C)n2n1 | 0
Cc1ccn2nc(S(=O)(=O)Nc3c(Cl)ccc4ccccc34)nc2n1 | 0
Cc1cc(C)n2nc(S(=O)(=O)Nc3ccccc3S(C)(=O)=O)nc2n1 | 0
Cc1ccc(NS(=O)(=O)c2nc3nc(C)cc(C)n3n2)c(Cl)c1 | 0
Cc1cc(C)n2nc(S(=O)(=O)Nc3c(C)cccc3C)nc2n1 | 0
O=S(=O)(Nc1ccccc1C(F)(F)F)c1nc2ncc(Cl)cn2n1 | 0
Cc1ccn2nc(S(=O)(=O)Nc3c(F)c(F)cc(F)c3F)nc2n1 | 0
Cc1cc(C)n2nc(S(=O)(=O)Nc3cccc(Cl)c3)nc2n1 | 0

**Q:** Value lookup for pest or weed control at 500 ppm; key = Cc1cccc(Cl)c1NS(=O)(=O)c1nc2ncc(Cl)cn2n1
**A:** 0

**Q:** Value lookup for pest or weed control at 500 ppm; key = COc1cccc(C=NO)c1NS(=O)(=O)c1nc2nc(C)cc(C)n2n1
**A:** 0

**Q:** Value lookup for pest or weed control at 500 ppm; key = Cc1ccn2nc(S(=O)(=O)N(C(=O)N(C)C)c3c(Cl)cccc3Cl)nc2n1
**A:** 0

**Q:** Value lookup for pest or weed control at 500 ppm; key = Cc1cc(C)n2nc(S(=O)(=O)Nc3c(Cl)cc(Cl)cc3Cl)nc2n1
**A:** 0

**Q:** Value lookup for pest or weed control at 500 ppm; key = Cc1cc(C)n2nc(S(=O)(=O)Nc3c(Cl)ccc4ccccc34)nc2n1
**A:** 0

**Q:** Value lookup for pest or weed control at 500 ppm; key = Cc1cc(C)n2nc(S(=O)(=O)Nc3ccccc3)nc2n1
**A:** 0

**Q:** Value lookup for pest or weed control at 500 ppm; key = Cc1cc(C)n2nc(S(=O)(=O)Nc3c(C)nn(C)c3C(F)(F)F)nc2n1
**A:** 0

====

tested on: pigweed; assay: Preemergent control of plant species; assay type: in vivo, Amaranthus spp.; settings: Amaranthus retroflexus, pre-emergence, 336 h; 0.25 lb/acre; read-out: percent preemergent control
ENDPOINT: pest or weed control at 280.212 g/ha (%)
The response must be a number in % with no trailing unit.

Example compounds with recorded pest or weed control at 280.212 g/ha:
Cc1cc(C)n2nc(S(=O)(=O)Nc3c(C)cccc3Cl)nc2n1 | 95
Cc1cc(C)n2nc(S(=O)(=O)Nc3ccccc3C(N)=O)nc2n1 | 100
Cc1cc(C)n2nc(S(=O)(=O)Nc3ccccc3F)nc2n1 | 95

**Q:** // fetch pigweed pest or weed control at 280.212 g/ha for Cc1ccn2nc(S(=O)(=O)Nc3c(Cl)cccc3Cl)nc2n1
**A:** 100

**Q:** // fetch pigweed pest or weed control at 280.212 g/ha for Cc1cc(C)n2nc(S(=O)(=O)Nc3c(Cl)cccc3Cl)nc2n1
**A:** 100

====

tested on: rape; assay: Preemergent control of plant species; assay type: in vivo, Brassica napus; details: Brassica napus, pre-emergence, 336 h; 0.25 lb/acre; read-out: percent preemergent control
ENDPOINT: plant injury at 280.212 g/ha

Example compounds with recorded plant injury at 280.212 g/ha:
Cc1ccn2nc(S(=O)(=O)N(C(=O)C(C)(C)C)c3c(F)cccc3F)nc2n1 | 100%
COc1ccn2nc(S(=O)(=O)Nc3c(Cl)cccc3Cl)nc2n1 | 100%

**Q:** Value lookup for plant injury at 280.212 g/ha; key = Cc1cccc(Cl)c1NS(=O)(=O)c1nc2nc(C)c(C)c(C)n2n1
**A:** 90%

====

test system: yellow nutsedge; test: Preemergent control of plant species; format: in vivo, Cyperus esculentus; conditions: Cyperus, pre-emergence, 336 h; 0.25 lb/acre; read-out: percent preemergent control
ENDPOINT: pest or weed control at 280.212 g/ha
Reply with a number, then the unit it belongs to.

Cc1ccn2nc(S(=O)(=O)N(C(=O)c3ccccc3)c3c(Cl)cccc3Cl)nc2n1 [Compound 274] | 100%
Cc1cc(C)n2nc(S(=O)(=O)Nc3c(Cl)cc(F)cc3Cl)nc2n1 [Compound 44] | 90%
CC(=O)N(c1c(Cl)cccc1Cl)S(=O)(=O)c1nc2nc(C)ccn2n1 [Compound 268] | 100%

In the following, a different compound is considered.
**Q:** Value lookup for pest or weed control at 280.212 g/ha; key = COc1ccc(F)c(NS(=O)(=O)c2nc3nc(C)ccn3n2)c1F [Compound 172]
**A:** 100%

====

Measured pest or weed control at 500 ppm values are reported for all entries that follow.
test system: wild oats; assay: Postemergent control of plant species; format: in vivo, Avena fatua; settings: Avena fatua, post-emergence, 336 h, read-out: percent postemergent control
The response must be a number in % with no trailing unit.

Example compounds with recorded pest or weed control at 500 ppm:
COc1ccc(Cl)c(NS(=O)(=O)c2nc3nc(C)ccn3n2)c1Cl [Compound 170] | 80
Cc1cc(C)n2nc(S(=O)(=O)N(Cc3ccccc3)c3c(Cl)cccc3Cl)nc2n1 [Compound 265] | 0
Cc1cc(C)n2nc(S(=O)(=O)Nc3ccc(Cl)cc3C(F)(F)F)nc2n1 [Compound 34] | 0
CSc1cccc(Cl)c1NS(=O)(=O)c1nc2nc(C)cc(C)n2n1 [Compound 69] | 0

**Q:** // fetch wild oats pest or weed control at 500 ppm for CCOC(=O)CN(c1c(C)cccc1C(=O)OC)S(=O)(=O)c1nc2nc(C)cc(C)n2n1 [Compound 266]
**A:** 0

Reference source for all entries: patent US4740233A
